Hi there, I'd appreciate the recorded ADCC cytotoxic activity (51Cr release) on QG56 for every entry that follows.
# TARGET SYSTEM: T1, CAPRIN-1 protein expressed on the membrane surface of human cancer cells (human, UniProt Q14444 2-709)
# T1 sequence (looked up): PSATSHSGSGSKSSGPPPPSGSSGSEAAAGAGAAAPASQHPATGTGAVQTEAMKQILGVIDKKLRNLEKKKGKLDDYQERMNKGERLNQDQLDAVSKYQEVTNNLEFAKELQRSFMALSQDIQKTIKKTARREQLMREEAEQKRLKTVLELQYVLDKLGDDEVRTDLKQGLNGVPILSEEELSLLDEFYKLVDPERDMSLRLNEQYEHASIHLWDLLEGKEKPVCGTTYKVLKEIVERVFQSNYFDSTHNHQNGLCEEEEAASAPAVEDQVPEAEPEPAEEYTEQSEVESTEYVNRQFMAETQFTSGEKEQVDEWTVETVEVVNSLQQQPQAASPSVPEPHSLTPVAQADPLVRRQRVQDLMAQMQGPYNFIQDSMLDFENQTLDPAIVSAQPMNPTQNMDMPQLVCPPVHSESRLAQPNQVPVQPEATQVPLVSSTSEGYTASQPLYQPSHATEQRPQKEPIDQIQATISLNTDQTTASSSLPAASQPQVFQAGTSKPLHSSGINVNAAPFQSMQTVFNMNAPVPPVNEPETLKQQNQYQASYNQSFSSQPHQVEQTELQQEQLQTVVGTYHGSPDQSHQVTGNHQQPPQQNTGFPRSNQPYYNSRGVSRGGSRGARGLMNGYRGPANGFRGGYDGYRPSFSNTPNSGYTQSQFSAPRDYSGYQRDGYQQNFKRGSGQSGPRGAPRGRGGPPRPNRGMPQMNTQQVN
# TEST METHOD NOTES: cell-based or functional assay

BINDER	MEASUREMENT
human-rabbit chimeric anti-CAPRIN-1 antibody (antibody, V domains shown) VH: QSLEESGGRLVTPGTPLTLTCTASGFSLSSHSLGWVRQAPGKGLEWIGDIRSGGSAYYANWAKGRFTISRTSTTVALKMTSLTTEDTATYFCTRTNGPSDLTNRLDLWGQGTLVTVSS VL: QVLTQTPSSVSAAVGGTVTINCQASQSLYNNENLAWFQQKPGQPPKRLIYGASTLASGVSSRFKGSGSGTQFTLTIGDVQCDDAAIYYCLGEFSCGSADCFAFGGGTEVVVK	≥ 38%

Now, please, on to the next binder.
// ADCC cytotoxic activity (51Cr release) on QG56 lookup, binder = humanized antibody #4 (antibody, V domains shown) VH: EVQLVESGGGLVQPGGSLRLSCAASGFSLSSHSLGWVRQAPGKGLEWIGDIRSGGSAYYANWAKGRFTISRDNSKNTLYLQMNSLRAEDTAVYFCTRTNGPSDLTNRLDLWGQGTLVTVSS VL: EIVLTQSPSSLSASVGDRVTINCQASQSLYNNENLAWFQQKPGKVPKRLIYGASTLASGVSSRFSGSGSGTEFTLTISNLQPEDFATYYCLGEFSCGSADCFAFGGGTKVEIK , result: ≥ 42%
